System: M. fermentans
Format: cell-based
Settings: Mycoplasmopsis fermentans; M. fermentans (15 isolates)
Known MIC50 of a selection of molecules
Reported Property: MIC50 (µg/mL)

1) C[C@H]1COc2c(N3CCN(C)CC3)c(F)cc3c(=O)c(C(=O)O)cn1c23 [Levofloxacin, levofloxacin] :: 0.031
2) C[C@H]1c2cccc(O)c2C(=O)C2=C(O)[C@]3(O)C(=O)C(C(N)=O)=C(O)[C@@H](N(C)C)[C@@H]3[C@@H](O)[C@@H]21 [Doxycycline, doxycycline] :: 0.125
3) CC(=O)NC[C@H]1CN(c2ccc(N3CCOCC3)c(F)c2)C(=O)O1 [Linezolid, linezolid] :: 1

---

Test system: N. meningitidis
Test: MIC, CLSI broth microdilution, invasive isolates
Assay type: cell-based
Details: Neisseria meningitidis; 62 N. meningitidis isolates
Reported Property: MIC50 (µg/mL)

1. CO[C@H]1/C=C/O[C@@]2(C)Oc3c(C)c(O)c4c(O)c(c(/C=N/N5CCN(C)CC5)c(O)c4c3C2=O)NC(=O)/C(C)=C\C=C\[C@H](C)[C@H](O)[C@@H](C)[C@@H](O)[C@@H](C)[C@H](OC(C)=O)[C@@H]1C :: 0.015

---

Known MIC50 of a selection of compounds
Tested on: U. parvum
Experiment: MIC testing in 10B broth (colour change)
Assay type: cell-based, Ureaplasma parvum
Conditions: Ureaplasma parvum; U. parvum (10 isolates); read-out: MIC50
Reported Property: MIC50

1) CC(=O)NC[C@H]1CN(c2ccc(N3CCOCC3)c(F)c2)C(=O)O1 :: > 256 µg/mL
2) CC[C@H]1OC(=O)[C@@](C)(F)C(=O)[C@H](C)[C@@H](OC2OC(C)CC(N(C)C)C2O)[C@@](C)(OC)C[C@@H](C)C(=O)[C@H](C)[C@H]2N(CCCCn3cc(-c4cccc(N)c4)nn3)C(=O)O[C@]12C (some centres unmarked) :: 0.008 µg/mL
3) C[C@H]1c2cccc(O)c2C(=O)C2=C(O)[C@]3(O)C(=O)C(C(N)=O)=C(O)[C@@H](N(C)C)[C@@H]3[C@@H](O)[C@@H]21 :: 8 µg/mL
4) CC[C@H]1OC(=O)[C@H](C)[C@@H](O[C@H]2C[C@@](C)(OC)[C@@H](O)[C@H](C)O2)[C@H](C)[C@@H](O[C@@H]2O[C@H](C)C[C@H](N(C)C)[C@H]2O)[C@](C)(O)C[C@@H](C)CN(C)[C@H](C)[C@@H](O)[C@]1(C)O :: 2 µg/mL
5) C[C@H]1COc2c(N3CCN(C)CC3)c(F)cc3c(=O)c(C(=O)O)cn1c23 :: 0.5 µg/mL

---

Tested on: M. hominis
Type: cell-based
Details: Metamycoplasma hominis; M. hominis (13 isolates); read-out: MIC90
Reported Property: MIC90 (µg/mL)

1. CC[C@H]1OC(=O)[C@H](C)C(=O)[C@H](C)[C@@H](O[C@@H]2O[C@H](C)C[C@H](N(C)C)[C@H]2O)[C@](C)(OC)C[C@@H](C)C(=O)[C@H](C)[C@H]2N(CCCCn3cnc(-c4cccnc4)c3)C(=O)O[C@]12C :: 0.5
2. CC(=O)NC[C@H]1CN(c2ccc(N3CCOCC3)c(F)c2)C(=O)O1 :: 4
3. C[C@H]1COc2c(N3CCN(C)CC3)c(F)cc3c(=O)c(C(=O)O)cn1c23 :: 0.5
4. CC[C@H]1OC(=O)[C@@](C)(F)C(=O)[C@H](C)[C@@H](OC2OC(C)CC(N(C)C)C2O)[C@@](C)(OC)C[C@@H](C)C(=O)[C@H](C)[C@H]2N(CCCCn3cc(-c4cccc(N)c4)nn3)C(=O)O[C@]12C (stereo partly shown) :: 0.008

---

Test system: N. meningitidis
Test: MIC, CLSI broth microdilution, invasive isolates
Type: cell-based
Conditions: Neisseria meningitidis; 62 N. meningitidis isolates
Known MIC90 of a selection of molecules
Reported Property: MIC90 (µg/mL)

1) CN(C)c1ccc(O)c2c1C[C@H]1C[C@H]3[C@H](N(C)C)C(O)=C(C(N)=O)C(=O)[C@@]3(O)C(O)=C1C2=O :: 0.12
2) CC[C@H]1OC(=O)[C@H](C)C(=O)[C@H](C)[C@@H](O[C@@H]2O[C@H](C)C[C@H](N(C)C)[C@H]2O)[C@](C)(OC)C[C@@H](C)C(=O)[C@H](C)[C@H]2N(CCCCn3cnc(-c4cccnc4)c3)C(=O)O[C@]12C :: 0.03
3) CO[C@H]1/C=C/O[C@@]2(C)Oc3c(C)c(O)c4c(O)c(c(/C=N/N5CCN(C)CC5)c(O)c4c3C2=O)NC(=O)/C(C)=C\C=C\[C@H](C)[C@H](O)[C@@H](C)[C@@H](O)[C@@H](C)[C@H](OC(C)=O)[C@@H]1C :: 0.06
4) CC[C@H]1OC(=O)[C@H](C)[C@@H](O[C@H]2C[C@@](C)(OC)[C@@H](O)[C@H](C)O2)[C@H](C)[C@@H](O[C@@H]2O[C@H](C)C[C@H](N(C)C)[C@H]2O)[C@](C)(OC)C[C@@H](C)C(=O)[C@H](C)[C@@H](O)[C@]1(C)O :: 0.12

---

Tested on: S. pneumoniae
Type: cell-based
Settings: strain 3665 Macrolide-R [mef(A)]; 8 × MIC
Reported Property: single step mutation frequency

1) CC[C@H]1OC(=O)[C@H](C)C(=O)[C@H](C)[C@@H](O[C@@H]2O[C@H](C)C[C@H](N(C)C)[C@H]2O)[C@](C)(OC)C[C@@H](C)C(=O)[C@H](C)[C@H]2N(CCCCn3cnc(-c4cccnc4)c3)C(=O)O[C@]12C [TEL, telithromycin] :: <2.5 × 10^−10
2) CCC[C@@H]1C[C@@H](C(=O)N[C@@H]([C@H]2O[C@H](SC)[C@H](O)[C@@H](O)[C@H]2O)[C@H](C)Cl)N(C)C1 [CLN, clindamycin] :: <2.4 × 10^−10
3) CC[C@H]1OC(=O)[C@H](C)[C@@H](O[C@H]2C[C@@](C)(OC)[C@@H](O)[C@H](C)O2)[C@H](C)[C@@H](O[C@@H]2O[C@H](C)C[C@H](N(C)C)[C@H]2O)[C@](C)(OC)C[C@@H](C)C(=O)[C@H](C)[C@@H](O)[C@]1(C)O [CLR, clarithromycin] :: <5.0 × 10^−10
4) CC[C@H]1OC(=O)[C@@](C)(F)C(=O)[C@H](C)[C@@H](OC2OC(C)CC(N(C)C)C2O)[C@@](C)(OC)C[C@@H](C)C(=O)[C@H](C)[C@H]2N(CCCCn3cc(-c4cccc(N)c4)nn3)C(=O)O[C@]12C (stereo partly shown) [CEM-101] :: <4.5 × 10^−10

---

Tested on: pneumococci
Assay: microbe, parasite or virus in culture
Format: cell-based, S. pneumoniae
Details: Streptococcus pneumoniae, pneumococci, L4 mutations (27)
Reported Property: MIC50 (µg/mL)

1. C[C@H]1COc2c(N3CCN(C)CC3)c(F)cc3c(=O)c(C(=O)O)cn1c23 [Levofloxacin, levofloxacin] :: 1
2. CC[C@H]1OC(=O)[C@H](C)C(=O)[C@H](C)[C@@H](O[C@@H]2O[C@H](C)C[C@H](N(C)C)[C@H]2O)[C@](C)(OC)C[C@@H](C)C(=O)[C@H](C)[C@H]2N(CCCCn3cnc(-c4cccnc4)c3)C(=O)O[C@]12C [TEL, telithromycin] :: 0.125

---

Known MIC of a selection of compounds
System: S. pyogenes
Assay: microbe, parasite or virus in culture
Assay type: cell-based
Conditions: Streptococcus pyogenes, read-out: Initial MIC, strain 237 Macrolide-R [LA mutation], parent
Reported Property: MIC (µg/mL)

1. CCC[C@@H]1C[C@@H](C(=O)N[C@@H]([C@H]2O[C@H](SC)[C@H](O)[C@@H](O)[C@H]2O)[C@H](C)Cl)N(C)C1 [CLN, clindamycin] :: 0.06
2. CC[C@H]1OC(=O)[C@H](C)C(=O)[C@H](C)[C@@H](O[C@@H]2O[C@H](C)C[C@H](N(C)C)[C@H]2O)[C@](C)(OC)C[C@@H](C)C(=O)[C@H](C)[C@H]2N(CCCCn3cnc(-c4cccnc4)c3)C(=O)O[C@]12C [TEL, telithromycin] :: 0.06
3. CC[C@H]1OC(=O)[C@H](C)[C@@H](O[C@H]2C[C@@](C)(OC)[C@@H](O)[C@H](C)O2)[C@H](C)[C@@H](O[C@@H]2O[C@H](C)C[C@H](N(C)C)[C@H]2O)[C@](C)(OC)C[C@@H](C)C(=O)[C@H](C)[C@@H](O)[C@]1(C)O [CLR, clarithromycin] :: 0.25
4. CC[C@H]1OC(=O)[C@H](C)[C@@H](O[C@H]2C[C@@](C)(OC)[C@@H](O)[C@H](C)O2)[C@H](C)[C@@H](O[C@@H]2O[C@H](C)C[C@H](N(C)C)[C@H]2O)[C@](C)(O)C[C@@H](C)CN(C)[C@H](C)[C@@H](O)[C@]1(C)O [AZI, azithromycin] :: 4

Just for reference, patent US9901592B2 is where these values come from.
